# credit: ChEMBL document CHEMBL4706609

PROTOCOL DETAILS: Inhibition of porcine brain tubulin polymerization measured for 20 mins by spectrometric assay
Assay type: tissue-based, Sus scrofa
READOUT TYPE: IC50 (nM)

[[record]]
smiles_str = "COc1cc(-c2nnc3n2N=C(c2ccc(C(F)(F)F)cc2)CS3)cc(OC)c1OC"
readout_type = "IC50"
numeric_result = 4820

[[record]]
smiles_str = "COc1ccc(C2=Nn3c(nnc3-c3cc(OC)c(OC)c(OC)c3)SC2)cc1"
readout_type = "IC50"
numeric_result = 2390

[[record]]
smiles_str = "COc1cc(-c2nnc3n2N=C(c2ccc(C)cc2)CS3)cc(OC)c1OC"
readout_type = "IC50"
numeric_result = 1690


###

Test system: HeLa
PROTOCOL DETAILS: Antiproliferative activity against human HeLa cells assessed as reduction in cell growth after 48 hrs by MTT assay
Type: functional, cell-based
Reported IC50 values follow for various compounds
READOUT TYPE: IC50 (nM)

[[record]]
smiles_str = "COc1cc(-c2nnc(SCC(=O)c3ccc(C)cc3F)n2N)cc(OC)c1OC"
tested_system = "HeLa"
readout_unit = "nM"
numeric_result = 40

[[record]]
smiles_str = "COc1ccc(C2=Nn3c(nnc3-c3cc(OC)c(OC)c(OC)c3)SC2)cc1"
tested_system = "HeLa"
readout_unit = "nM"
numeric_result = 18

[[record]]
smiles_str = "COc1cc(-c2nnc3n2N=C(c2ccc(C(F)(F)F)cc2)CS3)cc(OC)c1OC"
tested_system = "HeLa"
readout_unit = "nM"
numeric_result = 19

[[record]]
smiles_str = "COc1cc(-c2nnc3n2N=C(c2ccc(C)cc2)CS3)cc(OC)c1OC"
tested_system = "HeLa"
readout_unit = "nM"
numeric_result = 4

